Test system: soybean (Glycine max)
Method: Test B pre-/postemergence plant response
Assay type: in vivo
Condition Notes: 62 g ai/ha, postemergence; 0 is no effect, 100 is complete control; 13 to 15 days
Exercise: state measured Soybean plant response rating (0 to 100 scale) for each of the compounds provided.
Respond numerically, and do not add a unit to the figure.

Report Soybean plant response rating (0 to 100 scale) for CCOCCn1c(-c2ccccc2)ncc(C(=O)C2=C(O)CCCC2=O)c1=O please.
75

Report Soybean plant response rating (0 to 100 scale) for O=C1CCCC(O)=C1C(=O)c1cnc(-c2ccccc2)n(C2CC2)c1=O please.
98

Report Soybean plant response rating (0 to 100 scale) for COCCn1c(-c2ccco2)ncc(C(=O)C2=C(O)CCCC2=O)c1=O please.
80

Report Soybean plant response rating (0 to 100 scale) for O=C1CCCC(O)=C1C(=O)c1cnc(-c2ccsc2)n(CC2CCCO2)c1=O (stereo not shown) please.
98

Report Soybean plant response rating (0 to 100 scale) for CCCCn1c(CCC)ncc(C(=O)C2=C(O)CCCC2=O)c1=O please.
95

Report Soybean plant response rating (0 to 100 scale) for CCCn1c(-c2ccsc2)ncc(C(=O)C2=C(O)CCCC2=O)c1=O please.
80

Report Soybean plant response rating (0 to 100 scale) for COCCOCCn1c(-c2ccccc2)ncc(C(=O)C2=C(O)CCCC2=O)c1=O please.
85

Report Soybean plant response rating (0 to 100 scale) for O=C1CCCC(O)=C1C(=O)c1cnc(-c2ccccc2)n(C2CCCCCC2)c1=O please.
98

Report Soybean plant response rating (0 to 100 scale) for O=C1CCCC(O)=C1C(=O)c1cnc(-c2cccnc2)n(-c2ccccc2)c1=O please.
98

Report Soybean plant response rating (0 to 100 scale) for CCCn1c(-c2cccc(OC)c2)ncc(C(=O)C2=C(O)CCCC2=O)c1=O please.
98
